B1: HESX1 (parent)
chain: ENKPSTCSFSIERILGLDQKKDCV

Variants of: B1
Assay Details: protein stability index of a GFP-peptide fusion (GPS, HEK-293T) (PSI 1-6); higher = more stable;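 also: lentivirally expressed fusions sorted by FACS into six bins by GFP to DsRed ratio, PSI derived from sequencing read proportions per bin multiplied by bin number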
Run Conditions: c terminus: a fixed tail appended
Quick reference for protein stability index among some variants
The answer should be written as a number, with no unit following it.

ENKPSTCSFSIERGLGLDQKKDCV [I14G]    4.09

Form: variant = ENKPGTCSFSIERILGLDQKKDCV [S5G] ; protein stability index = 3.31

Form: variant = ENKPSTASFSIERILGLDQKKDCV [C7A] ; protein stability index = 3.58

Form: variant = ENKPSTCSFSIERIKGLDQKKDCV [L15K] ; protein stability index = 4.23

Form: variant = ENKPSTCSFSIERILGLDQKKDCG [V24G] ; protein stability index = 3.9

Form: variant = ENKPSTVSFSIERILGLDQKKDCV [C7V] ; protein stability index = 3.17

Form: variant = ENKPSTCSFSIERILGLDQKGDCV [K21G] ; protein stability index = 2.86
